Value source: the supplement of paper PMC10567573

protein stability index listing for selected variants.
B1: DVL3 (parent)
chain: SDVVDWLYHNVEGFTDRREARKYA

variants of: B1; test: protein stability index of a GFP-peptide fusion (GPS, HEK-293T) (PSI 1-6); higher = more stable; conditions: c terminus: a fixed tail appended;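 also: lentivirally expressed fusions sorted by FACS into six bins by GFP to DsRed ratio, PSI derived from sequencing read proportions per bin multiplied by bin number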
Readout Kind: protein stability index

Sequence	Readout Kind	Measured Result
SDVVDWLYHNVYGFTDRREARKYA [E12Y]	protein stability index	1.58
SRVVDWLYHNVEGFTDRREARKYA [D2R]	protein stability index	2.23
SDVVDWLYHNVEGFTDRSEARKYA [R18S]	protein stability index	3.43
SDVVDWLYHNVEGFTDWREARKYA [R17W]	protein stability index	2
SDVIDWLYHNVEGFTDRREARKYA [V4I]	protein stability index	2.56
SDVVDWLYHNVEGFTDRRLARKYA [E19L]	protein stability index	2.35
SDVVDWLYHNVEGHTDRREARKYA [F14H]	protein stability index	3.27
SDVVDWLYHNVEGFTDAREARKYA [R17A]	protein stability index	2.81
SDVVDWLYHNVNGFTDRREARKYA [E12N]	protein stability index	2.5
SCVVDWLYHNVEGFTDRREARKYA [D2C]	protein stability index	2.16
SDVVDWLYHNVEHFTDRREARKYA [G13H]	protein stability index	2.56
SDVVDWLYHNVEGFTDRRPARKYA [E19P]	protein stability index	2.85
SDVVDWLYHNVGGFTDRREARKYA [E12G]	protein stability index	2.37
SDVVDWLYHNVEGSTDRREARKYA [F14S]	protein stability index	4.19
SDVVDWLYHNVEGFTWRREARKYA [D16W]	protein stability index	2.12
SDVVDWLYHNVEGFTDFREARKYA [R17F]	protein stability index	2.16
SDVVDWTYHNVEGFTDRREARKYA [L7T]	protein stability index	4.05
NDVVDWLYHNVEGFTDRREARKYA [S1N]	protein stability index	3.42
SDVVDWLYHNVEGFTDRREAREYA [K22E]	protein stability index	3.24
SDVVDWLYHNVEGFTDRREARKIA [Y23I]	protein stability index	2.82
SDVVDRLYHNVEGFTDRREARKYA [W6R]	protein stability index	4.79
SDVVDWLYHNVEGFTDRREAYKYA [R21Y]	protein stability index	2.34
SDVVDWLYHNVCGFTDRREARKYA [E12C]	protein stability index	2.18
SDVVDWLYHNTEGFTDRREARKYA [V11T]	protein stability index	2.67
SDVVDDLYHNVEGFTDRREARKYA [W6D]	protein stability index	4.75
SDVVDWLYKNVEGFTDRREARKYA [H9K]	protein stability index	2.67
SMVVDWLYHNVEGFTDRREARKYA [D2M]	protein stability index	2.09
SDVVDWLYHNVEGFTDRREARRYA [K22R]	protein stability index	2.29
SDVLDWLYHNVEGFTDRREARKYA [V4L]	protein stability index	2.98
SDVVDWLYHNVEGFTDRREARAYA [K22A]	protein stability index	2.73
SDVVDWLYHNVEGFTDRREARKLA [Y23L]	protein stability index	3.15
SDVVDWLYHNVEGFTDRREGRKYA [A20G]	protein stability index	4.09
SDVVDWLYHNVEGFTDRIEARKYA [R18I]	protein stability index	2.42
SIVVDWLYHNVEGFTDRREARKYA [D2I]	protein stability index	2.46
SDVVDWLYHNVEGFTDRWEARKYA [R18W]	protein stability index	1.55
SDVVDWLYHNVEGFCDRREARKYA [T15C]	protein stability index	2.67
SDVVDFLYHNVEGFTDRREARKYA [W6F]	protein stability index	2.9
SDVVDWLYWNVEGFTDRREARKYA [H9W]	protein stability index	2.42
SDVVDWLYHNVESFTDRREARKYA [G13S]	protein stability index	2.96
SDVVDWLYHNVEFFTDRREARKYA [G13F]	protein stability index	1.61
SDVVDWLYHIVEGFTDRREARKYA [N10I]	protein stability index	2.25
SDVVDWLYHNVEGDTDRREARKYA [F14D]	protein stability index	3.95
SDVVDWLYHNVEGFTDRRESRKYA [A20S]	protein stability index	3.43
SDVVDWLYHNVEGFTMRREARKYA [D16M]	protein stability index	2.29
SDVVDWLYHNVEGFTDRKEARKYA [R18K]	protein stability index	2.97
SDVVDWLYHNVEGFTDRREARQYA [K22Q]	protein stability index	2.81
SDVVDWLYHNVEGFTDRREKRKYA [A20K]	protein stability index	2.56
SDVVDWLYHNVEGFTDRREYRKYA [A20Y]	protein stability index	2.34
SDVYDWLYHNVEGFTDRREARKYA [V4Y]	protein stability index	3.21
EDVVDWLYHNVEGFTDRREARKYA [S1E]	protein stability index	3.76
SDCVDWLYHNVEGFTDRREARKYA [V3C]	protein stability index	3.69
SDVVDWLIHNVEGFTDRREARKYA [Y8I]	protein stability index	2.39
SDVVDWLYHNKEGFTDRREARKYA [V11K]	protein stability index	3.85
SDVVDWLYHNVSGFTDRREARKYA [E12S]	protein stability index	2.83
SDVVDWLYHNVEGFHDRREARKYA [T15H]	protein stability index	3.23
SDVPDWLYHNVEGFTDRREARKYA [V4P]	protein stability index	3.81
SDVVDWLYHNVWGFTDRREARKYA [E12W]	protein stability index	2.04
STVVDWLYHNVEGFTDRREARKYA [D2T]	protein stability index	2.9
SDVVDWLQHNVEGFTDRREARKYA [Y8Q]	protein stability index	3.81
SDVVDWLYHNVEGFTDRREARDYA [K22D]	protein stability index	2.89
SDVVDKLYHNVEGFTDRREARKYA [W6K]	protein stability index	4.38
SDVVDWLYHNVEGFDDRREARKYA [T15D]	protein stability index	3.04
SDVVDWLYHNYEGFTDRREARKYA [V11Y]	protein stability index	3.48
SDVVDWLYHNVEGFTDRREDRKYA [A20D]	protein stability index	3.1
SDVVDWLYHNVENFTDRREARKYA [G13N]	protein stability index	2.66
SDVVDWLYHNVEGFTDRREPRKYA [A20P]	protein stability index	4.29
SDVVDWLYHNVEGFTCRREARKYA [D16C]	protein stability index	1.92
SDVVDQLYHNVEGFTDRREARKYA [W6Q]	protein stability index	4.22
SDVVDWLYHNVRGFTDRREARKYA [E12R]	protein stability index	2.78
SDVVDWLYHNVEGFMDRREARKYA [T15M]	protein stability index	3.02
SHVVDWLYHNVEGFTDRREARKYA [D2H]	protein stability index	2.91
SDVVDWLYHNVEGFTDRREARKYY [A24Y]	protein stability index	2.99
SDVVDWLYPNVEGFTDRREARKYA [H9P]	protein stability index	4
SDVVDWLYHNVEGFTDRREARKNA [Y23N]	protein stability index	4.05
SDVVDWLYHNVEGCTDRREARKYA [F14C]	protein stability index	3.04
SDEVDWLYHNVEGFTDRREARKYA [V3E]	protein stability index	5.17
SDVVDWLYHNVEGFTDRREQRKYA [A20Q]	protein stability index	2.69
SDVVDWLYHNVEGFTDRREARKYE [A24E]	protein stability index	2.62
SDVVDWLYHNHEGFTDRREARKYA [V11H]	protein stability index	3.6
SDVVDWLYHNVEGFTDRREWRKYA [A20W]	protein stability index	2.18
SDVVDWLYHNVEGFTDRREARKYN [A24N]	protein stability index	3.62
SDVVDWLYHNVAGFTDRREARKYA [E12A]	protein stability index	3.49
SDVVDWLYHNVEGFTDRREARSYA [K22S]	protein stability index	3.31
SDVVDWLYDNVEGFTDRREARKYA [H9D]	protein stability index	3.66
SDVVHWLYHNVEGFTDRREARKYA [D5H]	protein stability index	2.44
SDVVDWLYHNVEPFTDRREARKYA [G13P]	protein stability index	3.2
SDPVDWLYHNVEGFTDRREARKYA [V3P]	protein stability index	4.24
SDVVDWLYHNVEGFTDRREARKKA [Y23K]	protein stability index	3.83
SDVVDWLVHNVEGFTDRREARKYA [Y8V]	protein stability index	2.93
SKVVDWLYHNVEGFTDRREARKYA [D2K]	protein stability index	2.73
SDVVDWLYFNVEGFTDRREARKYA [H9F]	protein stability index	2.14
